Procedure Summary: Selectivity index, ratio of CC50 for human HS27 cells to EC50 for human cytomegalovirus infected in human HS27 cells
Format: toxicity, cell-based
Experimental Context: HS27 cells infected with human cytomegalovirus, read-out: Selectivity Index
Observation Type: selectivity ratio

Given "Nc1nc(O)c2ncn(COC(CO)CO)c2n1" , respond with its selectivity ratio.
> 1040

----------
Procedure Summary: Selectivity index, ratio of CC50 for HEL299 cells to EC50 for human cytomegalovirus infected in HEL299 cells
Format: toxicity, cell-based, HEL 299
Experimental Context: read-out: Selectivity Index
Observation Type: selectivity ratio

Given "Nc1nc(O)c2ncn(COC(CO)CO)c2n1" , respond with its selectivity ratio.
> 139
